Target: Sigma non-opioid intracellular receptor 1 (Cavia porcellus, UniProt Q60492)
Sequence (Q60492 whole entry): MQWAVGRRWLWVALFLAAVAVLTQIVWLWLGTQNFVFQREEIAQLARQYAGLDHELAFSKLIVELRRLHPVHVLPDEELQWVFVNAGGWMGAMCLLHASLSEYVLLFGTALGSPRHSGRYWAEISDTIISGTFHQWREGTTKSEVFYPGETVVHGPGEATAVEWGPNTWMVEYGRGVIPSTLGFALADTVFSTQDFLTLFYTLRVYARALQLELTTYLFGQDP
Assay: Displacement of [3H](+)-pentazocine from Sigma1 receptor in Dunkin Hartley guinea pig brain membrane after 120 mins by liquid scintillation counting analysis
Endpoint label: log10 Ki (log10 of the value in nM)
Would you kindly interpret these values as log10 of Ki expressed in nM?

Below are worked cases with known answers.
# Compound, Endpoint label, Observed result
data = [
    ("Cc1ccc(C(=O)N2CC(=O)N(C3CCCCC3)C(=O)C23CCCCC3)cc1", "log10 Ki", 2.60),
    ("COc1ccc(C(=O)N2CC(=O)N(C3CCCCC3)C(=O)C23CCCCC3)c(OC)c1", "log10 Ki", 2.99),
    ("O=C1CN(C(=O)c2ccccc2)C2(CCN(Cc3ccccc3)CC2)C(=O)N1C1CCCCC1", "log10 Ki", 0.86),
    ("CC(C)(C)C1CCC2(CC1)C(=O)N(C1CCCCC1)C(=O)CN2C(=O)c1ccccc1 (stereo unspecified)", "log10 Ki", 3.90),
    ("Cc1ccc(C(=O)N2CC(=O)N(C3CCCCC3)C(=O)C23CCN(Cc2ccccc2)CC3)cc1", "log10 Ki", 1.05),
]

Now for a further compound.
Incoming: Provide one value: measured log10 Ki of COc1ccc(C(=O)N2CC(=O)N(C3CCCCC3)C(=O)C23CCN(Cc2ccccc2)CC3)cc1
Outgoing: 0.77

###

Assay: Displacement of [3H]-DTG from Sigma2 receptor in Sprague-Dawley rat liver membrane after 150 mins by liquid scintillation counting analysis in presence of sigma1 blocker (+)-pentazocine
Format: cell membranes
Threshold check on Ki: strictly below 200 nM is y; on or above 200 nM is n.

# count of solved cases: 8
# Molecule, Class label
measured = [
    ("Cc1ccc(C(=O)N2CC(=O)N(C3CCCCC3)C(=O)C23CCN(Cc2ccccc2)CC3)cc1", "y"),
    ("Cc1ccc(C(=O)N2CC(=O)N(C3CCCCC3)C(=O)C23CCCC3)cc1", "y"),
    ("COc1ccc(C(=O)N2CC(=O)N(C3CCCCC3)C(=O)C23CCCC3)cc1", "y"),
    ("Cc1ccc(C(=O)N2CC(=O)N(C3CCCCC3)C(=O)C23CCCCC3)cc1", "n"),
    ("COc1ccc(C(=O)N2CC(=O)N(C3CCCCC3)C(=O)C23CCCCC3)c(OC)c1", "n"),
    ("COc1ccc(C(=O)N2CC(=O)N(C3CCCCC3)C(=O)C23CCN(Cc2ccccc2)CC3)cc1", "n"),
    ("O=C1CN(C(=O)c2ccccc2)C2(CCN(Cc3ccccc3)CC2)C(=O)N1C1CCCCC1", "n"),
    ("O=C(CCCN1CCC(O)(c2ccc(Cl)cc2)CC1)c1ccc(F)cc1", "y"),
]

Okay, next one:
Incoming: Hi there! Is Ki for CC(C)(C)C1CCC2(CC1)C(=O)N(C1CCCCC1)C(=O)CN2C(=O)c1ccccc1 (centres undefined) below 200 nM, do you know?
Outgoing: n

###

Biological target: Sigma non-opioid intracellular receptor 1 (Cavia porcellus)
Experiment: Displacement of [3H](+)-pentazocine from Sigma1 receptor in Dunkin Hartley guinea pig brain membrane after 120 mins by liquid scintillation counting analysis
Endpoint label: log10(Ki) (log10 of the value in nM)
Please interpret these as log10 of Ki where Ki is in nM.

Please review the entries below; each comes with its answer.
# Compound, Endpoint label, Observed result
rows = [
    ("COc1ccc(C(=O)N2CC(=O)N(C3CCCCC3)C(=O)C23CCC(C(C)(C)C)CC3)cc1 (stereo not given)", "log10(Ki)", 3.97),
    ("O=C1CN(C(=O)c2ccccc2)C2(CCCC2)C(=O)N1C1CCCCC1", "log10(Ki)", 1.90),
]

Your task in this section: give log10(Ki) for each listed record.
1. COc1ccc(C(=O)N2CC(=O)N(C3CCCCC3)C(=O)C23CCCC3)cc1
2. Cc1ccc(C(=O)N2CC(=O)N(C3CCCCC3)C(=O)C23CCCC3)cc1
3. COc1ccc(C(=O)N2CC(=O)N(C3CCCCC3)C(=O)C23CCCCC3)cc1

Outgoing:
[2.63, 2.28, 3.14]
